Data origin: paper PMC12771125

# assay procedure: Aqueous solubility
# Type: physicochemical
Assign true (1) to entries whose solubility meets or exceeds 4 µM; assign false (0) to the rest.

[
  {
    "structure as smiles": "CC(C)c1csc(NC(=O)Nc2ccc(F)cc2F)n1",
    "class name": "false (0)"
  },
  {
    "structure as smiles": "O=C(Nc1nc2c(Cl)c(Cl)ccc2s1)C1CCCC1",
    "class name": "true (1)"
  },
  {
    "structure as smiles": "c1ccc2c(N3CCCCC3)cc(N3CCCC3)nc2c1",
    "class name": "true (1)"
  },
  {
    "structure as smiles": "CC(C)C(=O)Nc1nc2c(Cl)c(Cl)ccc2s1",
    "class name": "true (1)"
  }
]

---

# assay procedure: Aqueous solubility
# Format: physicochemical
measurement type: log10 solubility (log10 of the value in µM)

[
  {
    "compound": "Oc1ccc(Nc2ccnc3cc(Cl)ccc23)cn1 [Compound 5i]",
    "log10 solubility": 2.34
  },
  {
    "compound": "Cc1ccc(Nc2cc(C)nn2-c2nc(C)cc(C)n2)cc1 [Compound 6b]",
    "log10 solubility": 0.04
  },
  {
    "compound": "O=C(Nc1nc(-c2ccccn2)cs1)NC1CCOCC1 [Compound 3i]",
    "log10 solubility": 2.34
  },
  {
    "compound": "CC(=O)Nc1nc2c(Cl)c(Cl)ccc2s1 [Compound 4a]",
    "log10 solubility": 2.30
  },
  {
    "compound": "O=C(Nc1nc2c(Cl)cccc2s1)C1CC1 [Compound 4i]",
    "log10 solubility": 0.71
  },
  {
    "compound": "N#Cc1ccc(NC(=O)c2cc(Cl)ccc2O)cn1 [Compound 1h]",
    "log10 solubility": 2.00
  },
  {
    "compound": "O=C(Nc1nc(-c2ccccn2)cs1)Nc1ccc(F)cc1F [Compound 3b]",
    "log10 solubility": 0.08
  },
  {
    "compound": "O=C(Nc1nc(-c2ccccn2)cs1)NC1CCNCC1 [Compound 3k]",
    "log10 solubility": 2.11
  },
  {
    "compound": "Cc1cc(C)nc(-n2nc(C)cc2NC(=O)c2ccccc2)n1 [Compound 6d]",
    "log10 solubility": 1.18
  },
  {
    "compound": "CN(c1ccccc1Nc1nc(Nc2ccc(CN3CCOCC3)cc2)ncc1Cl)S(C)(=O)=O [Compound 2d]",
    "log10 solubility": 1.81
  },
  {
    "compound": "N#Cc1ccc(NC(=O)c2cc(Cl)ccc2O)cc1Cl [Compound 1e]",
    "log10 solubility": 0.36
  },
  {
    "compound": "Cc1cc(Nc2ccccc2)n(-c2ccccc2)n1 [Compound 6c]",
    "log10 solubility": 1.91
  },
  {
    "compound": "CC(C)NC(=O)Nc1nc(-c2ccccn2)cs1 [Compound 3j]",
    "log10 solubility": 2.15
  },
  {
    "compound": "c1cncc(-c2cc(N3CCCCC3)c3ccccc3n2)c1 [Compound 7c]",
    "log10 solubility": 1.76
  },
  {
    "compound": "O=C(Nc1nc2c(Cl)c(Cl)ccc2s1)c1ccccc1 [Compound 4g]",
    "log10 solubility": -0.22
  },
  {
    "compound": "c1ccc2c(N3CCCCC3)cc(N3CCCCC3)nc2c1 [Compound 7e]",
    "log10 solubility": 0.91
  },
  {
    "compound": "Cc1cc(NC(=O)c2ccccc2)n(-c2ccccc2)n1 [Compound 6e]",
    "log10 solubility": 2.38
  },
  {
    "compound": "Cc1sc(NC(=O)Nc2ccc(F)cc2F)nc1-c1ccccn1 [Compound 3m]",
    "log10 solubility": -0.42
  },
  {
    "compound": "NCCN(C(=O)c1ccc(F)cc1F)c1ccc(Cl)cc1 [Compound 1n]",
    "log10 solubility": 1.86
  },
  {
    "compound": "O=C(Nc1nc(-c2cccnc2)cs1)Nc1ccc(F)cc1F [Compound 3d]",
    "log10 solubility": 0.18
  },
  {
    "compound": "O=C(Nc1nc2c(Cl)c(Cl)ccc2s1)C1CC1 [Compound 4d]",
    "log10 solubility": 1.08
  }
]

---

Measured solubility values are reported for all entries that follow.
# assay procedure: Aqueous solubility
# Format: physicochemical

[
  {
    "structure as smiles": "Cc1cc(NC(=O)c2cc(Cl)ccc2O)ccc1C#N",
    "solubility [µM]": 60
  },
  {
    "structure as smiles": "Clc1ccc2c(Nc3ccc4[nH]ccc4c3)ccnc2c1",
    "solubility [µM]": 11
  },
  {
    "structure as smiles": "Oc1ccc(Nc2ccnc3cc(Cl)ccc23)cc1",
    "solubility [µM]": 3.5
  },
  {
    "structure as smiles": "NCCN(C(=O)c1ccc(Cl)cc1Cl)c1ccc(OCc2ccc(Cl)cc2)cc1",
    "solubility [µM]": 53
  },
  {
    "structure as smiles": "c1ccc(-c2cc(N3CCCCC3)c3ccccc3n2)nc1",
    "solubility [µM]": 10
  },
  {
    "structure as smiles": "CS(=O)(=O)Nc1cc(F)ccc1Nc1nc(Nc2ccc(CN3CCNCC3)cc2)ncc1Cl",
    "solubility [µM]": 27
  },
  {
    "structure as smiles": "O=C(Nc1nc(-c2ccccc2)cs1)Nc1ccc(F)cc1F",
    "solubility [µM]": 0.24
  },
  {
    "structure as smiles": "NC(=O)Nc1nc2c(Cl)c(Cl)ccc2s1",
    "solubility [µM]": 190
  },
  {
    "structure as smiles": "COc1ccc(Cl)cc1C(=O)Nc1ccc(C#N)c(Cl)c1",
    "solubility [µM]": 0.19
  }
]

---

# System: HepG2 cells
# assay procedure: HepG2 cytotoxicity assay (resazurin, 72 h)
# Type: cell-based, human
# measurement conditions: Homo sapiens, HepG2, 72 h; read-out: HepG2 pEC50 (converted)
measurement type: EC50 (µM)

[
  {
    "structure as smiles": "CS(=O)(=O)Nc1ccccc1Nc1nc(NC2CCOCC2)ncc1Cl",
    "measure unit": "µM",
    "limit qualifier": "=",
    "value": 5.01
  },
  {
    "structure as smiles": "c1ccc(-c2cc(N3CCCCC3)c3ccccc3n2)cc1",
    "measure unit": "µM",
    "limit qualifier": ">",
    "value": 100
  },
  {
    "structure as smiles": "O=C(Nc1nc(-c2ccc(F)cc2F)cs1)Nc1ccc(F)cc1F",
    "measure unit": "µM",
    "limit qualifier": ">",
    "value": 100
  },
  {
    "structure as smiles": "CC(C)NC(=O)Nc1nc(-c2ccccn2)cs1",
    "measure unit": "µM",
    "limit qualifier": ">",
    "value": 100
  },
  {
    "structure as smiles": "O=C(Nc1nc2c(Cl)c(Cl)ccc2s1)C1CCCC1",
    "measure unit": "µM",
    "limit qualifier": "=",
    "value": 50.1
  }
]
